# system under test: mAChR M4 (Homo sapiens, UniProt P08173)
# Construct: expressed in transfected cells; host or cells: CHO-K1 cells stably transfected with M4 cDNA and chimeric G-protein Gqi5
# Sequence (P08173 whole entry): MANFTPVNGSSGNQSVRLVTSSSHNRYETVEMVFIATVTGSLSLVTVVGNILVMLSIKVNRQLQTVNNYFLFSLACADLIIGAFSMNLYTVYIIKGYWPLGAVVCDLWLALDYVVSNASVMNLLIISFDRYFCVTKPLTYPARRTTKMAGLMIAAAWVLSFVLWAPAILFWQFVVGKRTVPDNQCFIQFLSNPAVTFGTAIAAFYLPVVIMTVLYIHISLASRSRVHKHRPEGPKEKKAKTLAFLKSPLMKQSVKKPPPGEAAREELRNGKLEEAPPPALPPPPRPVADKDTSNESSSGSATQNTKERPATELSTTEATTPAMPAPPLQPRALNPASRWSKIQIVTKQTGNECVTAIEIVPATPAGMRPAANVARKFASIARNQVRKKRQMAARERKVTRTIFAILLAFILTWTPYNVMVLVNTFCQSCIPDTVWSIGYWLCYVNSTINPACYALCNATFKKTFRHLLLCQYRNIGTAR
# protocol description: mAChR M4 cell-based functional assay (calcium mobilization, potentiation of EC20 acetylcholine response)
# condition description: % ACh maximum at 30 μM
reported endpoint: Emax at 30 µM (%)

compound	Emax at 30 µM, %
CSc1ccc(CNC(=O)c2sc3nnc(C)c(C)c3c2N)cc1 [Example B26]	76
COc1ccc(CNC(=O)c2sc3nnc(C)c(C)c3c2N)cc1Br [Example B482]	67
COc1ccc(CNC(=O)c2sc3nnc(C)c(C)c3c2N)cn1 [Example B288]	71
Cc1nnc2sc(C(=O)NC3CN(C(=O)c4ccccc4)C3)c(N)c2c1C [Example B160]	71
Cc1nnc2sc(C(=O)NC3CCN(c4ccccc4Cl)C3)c(N)c2c1C (centres unmarked) [Example B264]	71

Reference source for all entries: patent US9868746B2
